Hey, just so you know, these numbers are from paper PMC6961116.

System: P-gp (MDR1)
Assay: MDCK-MDR1 cell permeability and efflux
Assay type: in vitro ADME
Conditions: dog, MDCK-MDR1, B to A direction; read-out: MDCK-MDR1 BA Papp
OBSERVED PROPERTY: Papp (×10⁻⁶ cm/s)

Examples with their reported Papp follow.
{"columns": ["COMPOUND", "TARGET OR TEST SYSTEM", "VALUE UNIT", "REPORTED VALUE"],
 "data": [
  ["CCN1CN(C(=O)CSc2ncnc3sc(C)c(Cl)c23)CC1=O", "P-gp (MDR1)", "×10⁻⁶ cm/s", 51],
  ["Cc1sc2ncnc(SCC(=O)N3CCn4c(C)nnc4C3)c2c1Cl", "P-gp (MDR1)", "×10⁻⁶ cm/s", 51],
  ["Cc1sc2ncnc(SCC(=O)N3CC(=O)N4CCCC4C3)c2c1Cl (stereo not drawn)", "P-gp (MDR1)", "×10⁻⁶ cm/s", 51],
  ["Cc1sc2ncnc(SCC(=O)N3CCn4c(nnc4C(F)(F)F)C3)c2c1Cl", "P-gp (MDR1)", "×10⁻⁶ cm/s", 85],
  ["Cc1sc2ncnc(SCC(=O)N3CCn4ncnc4C3)c2c1Cl", "P-gp (MDR1)", "×10⁻⁶ cm/s", 49],
  ["Cc1sc2ncnc(SCC(=O)N3CCn4c(nnc4C4CC4)C3)c2c1Cl", "P-gp (MDR1)", "×10⁻⁶ cm/s", 78]
]}

I. Cc1sc2ncnc(SCC(=O)N3CCNC(=O)C3)c2c1Cl
II. Cc1sc2ncnc(SCC(=O)N3CC(=O)N(C)C3)c2c1C
III. Cc1sc2ncnc(SCC(=O)N3CCn4nc(C(F)(F)F)nc4C3)c2c1Cl
IN: Order by Papp, ascending. Please respond with the labels ordered as the question requires.
OUT: III, II, I
(III: 27 ×10⁻⁶ cm/s, II: 45 ×10⁻⁶ cm/s, I: 66 ×10⁻⁶ cm/s)

###

Assay: Mouse pharmacokinetics, single oral dose
Format: in vivo
Details: C57BL/6, mouse, po; brain; male C57BL6 mice, p.o. 10 mg/kg
OBSERVED PROPERTY: Cmax at 24 h (ng/g)
Just the number please, in ng/g, no unit attached.

Entry Cc1c(C(F)(F)F)oc2ncnc(SCC(=O)N3CC(=O)N(C)C3)c12 [Compound 24] , Cmax at 24 h reported as 1210

###

Target: Notum(81–451 Cys330Ser) (Homo sapiens, UniProt Q6P988, C330S)
Sequence (Q6P988 81-451 C330S): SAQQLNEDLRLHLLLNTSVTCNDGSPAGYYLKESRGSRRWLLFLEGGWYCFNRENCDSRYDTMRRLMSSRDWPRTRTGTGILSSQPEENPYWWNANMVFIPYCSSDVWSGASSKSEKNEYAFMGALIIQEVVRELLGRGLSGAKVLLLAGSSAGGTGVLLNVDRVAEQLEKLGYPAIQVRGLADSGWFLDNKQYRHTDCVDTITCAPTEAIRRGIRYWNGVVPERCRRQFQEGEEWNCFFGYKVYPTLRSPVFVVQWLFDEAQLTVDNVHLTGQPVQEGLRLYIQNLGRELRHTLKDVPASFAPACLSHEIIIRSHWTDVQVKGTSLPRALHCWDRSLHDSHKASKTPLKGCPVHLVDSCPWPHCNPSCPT
Assay: Notum biochemical OPTS assay (carboxylesterase activity)
Details: OPTS substrate, 1 h incubation; geometric mean ± s.d.
OBSERVED PROPERTY: IC50 (nM)

Examples with their reported IC50 follow.
{"columns": ["SMILES STRING", "IC50 [nM]"],
 "data": [
  ["Cc1sc2ncnc(SCC(=O)N3CCn4c(nnc4C4CC4)C3)c2c1Cl", 27],
  ["Cc1sc2ncnc(SCC(=O)N(C)C)c2c1Cl", 15],
  ["Cc1sc2ncnc(SCC(=O)N3CCOCC3)c2c1Cl", 69],
  ["Cc1sc2ncnc(SCC(=O)N3CC(=O)N(CC(F)(F)F)C3)c2c1Cl", 3.9]
]}

I. Cc1sc2ncnc(SCC(=O)N3CC(=O)NC(C)(C)C3)c2c1Cl
II. O=C(O)CSc1ncnc2[nH]ccc12
III. CCc1nnc2n1CCN(C(=O)CSc1ncnc3sc(C)c(Cl)c13)C2
IV. Cc1sc2ncnc(SCC(=O)N3CCN(C)C(=O)C3)c2c1Cl
V. Cc1sc2ncnc(SCC(=O)N3CC(=O)N(C4CC4)C3)c2c1Cl
IN: Arrange the 5 molecules from largest to smallest IC50. Please respond with the labels ordered as the question requires.
OUT: II, I, III, IV, V
(II: 77000 nM, I: 450 nM, III: 23 nM, IV: 6.2 nM, V: 3.8 nM)

###

Test: Mouse pharmacokinetics, single oral dose
Type: in vivo
Conditions: C57BL/6, mouse, po; plasma; male C57BL6 mice, p.o. 10 mg/kg
OBSERVED PROPERTY: Tmax (min)
Just the number please, in min, no unit attached.

Entry Cc1c(C(F)(F)F)oc2ncnc(SCC(=O)N3CC(=O)N(C)C3)c12 [Compound 24] , Tmax reported as 30

###

System: P-gp (MDR1)
Test: MDCK-MDR1 cell permeability and efflux
Format: in vitro ADME
Details: dog, MDCK-MDR1, A to B direction; read-out: MDCK-MDR1 AB Papp
OBSERVED PROPERTY: Papp (×10⁻⁶ cm/s)

{"columns": ["COMPOUND", "TARGET OR TEST SYSTEM", "Papp (×10⁻⁶ cm/s)"],
 "data": [
  ["CCN1CN(C(=O)CSc2ncnc3sc(C)c(Cl)c23)CC1=O [Compound 5m]", "P-gp (MDR1)", 35]
]}

a. Cc1sc2ncnc(SCC(=O)N3CCn4ncnc4C3)c2c1Cl [Compound 5t]
b. Cc1sc2ncnc(SCC(=O)N3CC(=O)N4CCCC4C3)c2c1Cl (stereo not drawn) [Compound 5k]
c. Cc1sc2ncnc(SCC(=O)N3CC(=O)N(C)C3)c2c1Cl [Compound 5l]
d. Cc1sc2ncnc(SCC(=O)N3CCn4cnnc4C3)c2c1Cl [Compound 5f]
IN: Arrange the 4 compounds from largest to smallest Papp. Please respond with the labels ordered as the question requires.
OUT: c, a, b, d

a. CN1CN(C(=O)CSc2ncnc3c(C4CC4)c(Cl)sc23)CC1=O [Compound 20]
b. Cc1sc2ncnc(SCC(=O)N3CCn4c(nnc4C(F)(F)F)C3)c2c1Cl [Compound 5s]
IN: Pick one: a or b . Which has the bigger Papp number? Give the label of your selection.
OUT: b
(b: 15 ×10⁻⁶ cm/s, a: 5.9 ×10⁻⁶ cm/s)

a. Cc1nc2n(n1)CCN(C(=O)CSc1ncnc3sc(C)c(Cl)c13)C2 [Compound 5u]
b. Cc1sc2ncnc(SCC(=O)N3CCn4c(nnc4C4CC4)C3)c2c1Cl [Compound 5r]
c. Cc1sc2ncnc(SCC(=O)N3CCn4c(C)nnc4C3)c2c1Cl [Compound 5p]
d. Cc1c(C(F)(F)F)sc2ncnc(SCC(=O)N3CC(=O)N(C)C3)c12 [Compound 22]
IN: Order by Papp, ascending. Please respond with the labels ordered as the question requires.
OUT: c, b, a, d
(c: 0.5 ×10⁻⁶ cm/s, b: 0.8 ×10⁻⁶ cm/s, a: 17 ×10⁻⁶ cm/s, d: 31 ×10⁻⁶ cm/s)

###

Assay: Mouse pharmacokinetics, single oral dose
Format: in vivo
Conditions: C57BL/6, mouse, po; plasma; male C57BL6 mice, p.o. 10 mg/kg
OBSERVED PROPERTY: AUC(0-inf) at 24 h (ng·h/mL)
Just the number please, in ng·h/mL, no unit attached.

Entry Cc1c(C(F)(F)F)oc2ncnc(SCC(=O)N3CC(=O)N(C)C3)c12 , AUC(0-inf) at 24 h reported as 5490

###

Experiment: Mouse pharmacokinetics, single oral dose
Format: in vivo
Settings: C57BL/6, mouse, po; brain; male C57BL6 mice, p.o. 10 mg/kg
Method: At this point, mouse pharmacokinetic data for 5l was generated in vivo to determine the extent of plasma exposure and to check the correlation of the in vitro ADME data with in vivo outcomes. Animal Testing Declaration: In vivo mouse pharmacokinetic data was generated at GVK Biosciences, Hyderabad, India. GVK Biosciences is accredited by AAALAC and OLAW for the ethical treatment of animals. All the animal experiments are conducted in accordance with IAEC approved protocols. […]
OBSERVED PROPERTY: Tmax (min)
Just the number please, in min, no unit attached.

Entry Cc1c(C(F)(F)F)oc2ncnc(SCC(=O)N3CC(=O)N(C)C3)c12 , Tmax reported as 30

###

Test: Mouse pharmacokinetics, single oral dose
Format: in vivo
Details: C57BL/6, mouse, po; plasma; male C57BL6 mice, p.o. 10 mg/kg; read-out: AUC(0-inf)
OBSERVED PROPERTY: AUC(0-inf) (ng·h/mL)
Just the number please, in ng·h/mL, no unit attached.

Entry Cc1sc2ncnc(SCC(=O)N3CC(=O)N(C)C3)c2c1Cl , AUC(0-inf) reported as 70
